testSystem: Protein kinase C alpha type (Homo sapiens, UniProt P17252)
Simple rule here: Ki less than 10 µM is y, otherwise n.

>  <molecule>
O=C1c2ccccc2C(=O)c2c(Nc3ccc(S(=O)(=O)N(CCO)CCO)cc3)ccc(O)c21

>  <assignedLabel>
y

$$$$
>  <molecule>
C[C@]12C/C(=C/N(CCO)CCO)C(=O)C[C@@H]1CC[C@@H]1[C@@H]2CC[C@]2(C)[C@@H](O)CC[C@@H]12

>  <assignedLabel>
n

$$$$

Query: Is it true that Ki reported for CC(=O)OC[C@@]1(C)C(OC(C)=O)CC[C@]2(C)[C@H](CC(OC(C)=O)C3=CCOC3=O)[C@](C)(CO)CC[C@H]21 (stereo not given in full) is less than 10 µM?
Reply: n

Query: Is it true that Ki reported for O=C1c2ccccc2C(=O)c2c(Nc3cccc(S(=O)(=O)N(CCO)CCO)c3)ccc(O)c21 is less than 10 µM?
Reply: n

Query: Is it true that Ki reported for O=C(OCC(O)C(OC(=O)c1ccccc1)C(CO)OC(=O)c1ccccc1)c1ccccc1 (stereo not given) is less than 10 µM?
Reply: n
